Provide the reported abundance fitness of each item.
B1: Proto-oncogene vav, residues 782 to 842; numbered along this chain, P15498 (parent)
chain: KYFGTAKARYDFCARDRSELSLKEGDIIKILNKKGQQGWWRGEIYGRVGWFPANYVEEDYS

Variants of: B1
procedure_summary: abundance fitness (aPCA) (normalised: wild type 0, dead -1); higher = more abundant; growth selection in yeast, the domain comes from the species named
condition_parameters: Homo sapiens
Response field accepts a number only; no unit should be typed.

Prompt: Which abundance fitness value is on record for A53V ?
Response: -0.301

Prompt: Which abundance fitness value is on record for Y55W ?
Response: -0.198

Prompt: Which abundance fitness value is on record for I28T ?
Response: -0.315

Prompt: Which abundance fitness value is on record for A8T ?
Response: -0.756

Prompt: Which abundance fitness value is on record for G46A ?
Response: -0.731

Prompt: Which abundance fitness value is on record for W40V ?
Response: -0.648

Prompt: Which abundance fitness value is on record for G35N ?
Response: -0.327

Prompt: Which abundance fitness value is on record for A53C ?
Response: -0.078

Prompt: Which abundance fitness value is on record for Q37K ?
Response: -0.022

Prompt: Which abundance fitness value is on record for F3R ?
Response: -0.145

Prompt: Which abundance fitness value is on record for Q36C ?
Response: -0.258

Prompt: Which abundance fitness value is on record for R47D ?
Response: -0.3

Prompt: Which abundance fitness value is on record for D26T ?
Response: -0.777

Prompt: Which abundance fitness value is on record for W50T ?
Response: -0.645

Prompt: Which abundance fitness value is on record for G4H ?
Response: -0.292

Prompt: Which abundance fitness value is on record for A14N ?
Response: -0.742

Prompt: Which abundance fitness value is on record for W40E ?
Response: -0.924

Prompt: Which abundance fitness value is on record for D11C ?
Response: -0.264

Prompt: Which abundance fitness value is on record for G4Q ?
Response: -0.151

Prompt: Which abundance fitness value is on record for G4W ?
Response: -0.169

Prompt: Which abundance fitness value is on record for D26E ?
Response: -0.172

Prompt: Which abundance fitness value is on record for Y45Q ?
Response: 0.169

Prompt: Which abundance fitness value is on record for Y10C ?
Response: -0.338

Prompt: Which abundance fitness value is on record for G35R ?
Response: -0.287

Prompt: Which abundance fitness value is on record for E19M ?
Response: 0

Prompt: Which abundance fitness value is on record for G25H ?
Response: -0.975

Prompt: Which abundance fitness value is on record for N54G ?
Response: -0.065

Prompt: Which abundance fitness value is on record for K29V ?
Response: -0.376

Prompt: Which abundance fitness value is on record for N32F ?
Response: -0.118

Prompt: Which abundance fitness value is on record for Y60K ?
Response: -0.122

Prompt: Which abundance fitness value is on record for F51L ?
Response: -0.813

Prompt: Which abundance fitness value is on record for Y10G ?
Response: -0.177

Prompt: Which abundance fitness value is on record for Y2D ?
Response: 0.021

Prompt: Which abundance fitness value is on record for K1T ?
Response: -0.27

Prompt: Which abundance fitness value is on record for G38K ?
Response: -0.248

Prompt: Which abundance fitness value is on record for F51T ?
Response: -0.799

Prompt: Which abundance fitness value is on record for G46M ?
Response: -0.896

Prompt: Which abundance fitness value is on record for D16H ?
Response: 0.022

Prompt: Which abundance fitness value is on record for V48A ?
Response: -0.156

Prompt: Which abundance fitness value is on record for Y55M ?
Response: -0.012

Prompt: Which abundance fitness value is on record for S61C ?
Response: 0.071

Prompt: Which abundance fitness value is on record for G42Y ?
Response: -0.618

Prompt: Which abundance fitness value is on record for K7W ?
Response: -0.407

Prompt: Which abundance fitness value is on record for N54W ?
Response: -0.091

Prompt: Which abundance fitness value is on record for K29G ?
Response: -0.281

Prompt: Which abundance fitness value is on record for L20G ?
Response: -0.927

Prompt: Which abundance fitness value is on record for D16T ?
Response: -0.135

Prompt: Which abundance fitness value is on record for A6T ?
Response: -0.883

Prompt: Which abundance fitness value is on record for K33V ?
Response: -0.41

Prompt: Which abundance fitness value is on record for A6C ?
Response: -0.115

Prompt: Which abundance fitness value is on record for N54R ?
Response: 0.055

Prompt: Which abundance fitness value is on record for S18K ?
Response: -0.239

Prompt: Which abundance fitness value is on record for L20M ?
Response: -0.756

Prompt: Which abundance fitness value is on record for K34P ?
Response: -0.165

Prompt: Which abundance fitness value is on record for E43L ?
Response: -0.525

Prompt: Which abundance fitness value is on record for R47T ?
Response: -0.313

Prompt: Which abundance fitness value is on record for A6V ?
Response: -0.214

Prompt: Which abundance fitness value is on record for Y60A ?
Response: -0.079

Prompt: Which abundance fitness value is on record for R47P ?
Response: -0.86

Prompt: Which abundance fitness value is on record for N32L ?
Response: -0.292

Prompt: Which abundance fitness value is on record for D11T ?
Response: -0.316

Prompt: Which abundance fitness value is on record for L31I ?
Response: -0.004

Prompt: Which abundance fitness value is on record for Y60C ?
Response: -0.119

Prompt: Which abundance fitness value is on record for I30M ?
Response: -0.555

Prompt: Which abundance fitness value is on record for W39M ?
Response: -0.028

Prompt: Which abundance fitness value is on record for R17C ?
Response: 0.1

Prompt: Which abundance fitness value is on record for Y55S ?
Response: -0.206

Prompt: Which abundance fitness value is on record for W50M ?
Response: -0.387

Prompt: Which abundance fitness value is on record for R41P ?
Response: -0.588

Prompt: Which abundance fitness value is on record for K29C ?
Response: -0.467

Prompt: Which abundance fitness value is on record for K33A ?
Response: -0.711

Prompt: Which abundance fitness value is on record for L20K ?
Response: -0.673

Prompt: Which abundance fitness value is on record for K1N ?
Response: 0.099

Prompt: Which abundance fitness value is on record for G49C ?
Response: -0.83

Prompt: Which abundance fitness value is on record for V56P ?
Response: -0.73

Prompt: Which abundance fitness value is on record for E57M ?
Response: -0.105

Prompt: Which abundance fitness value is on record for E43D ?
Response: -0.559

Prompt: Which abundance fitness value is on record for G35V ?
Response: -0.412

Prompt: Which abundance fitness value is on record for L22F ?
Response: 0.176

Prompt: Which abundance fitness value is on record for S61E ?
Response: -0.235

Prompt: Which abundance fitness value is on record for R47S ?
Response: -0.297

Prompt: Which abundance fitness value is on record for K7L ?
Response: -0.191

Prompt: Which abundance fitness value is on record for I27P ?
Response: -0.557

Prompt: Which abundance fitness value is on record for C13W ?
Response: -0.087

Prompt: Which abundance fitness value is on record for K33L ?
Response: -0.929

Prompt: Which abundance fitness value is on record for E57C ?
Response: -0.284

Prompt: Which abundance fitness value is on record for R41A ?
Response: -0.364

Prompt: Which abundance fitness value is on record for D59C ?
Response: -0.125

Prompt: Which abundance fitness value is on record for G46W ?
Response: -0.853

Prompt: Which abundance fitness value is on record for Y2G ?
Response: -0.15

Prompt: Which abundance fitness value is on record for G46R ?
Response: -0.671
